Measured relative viability by item
test system: SK-MES-1; assay: relative viability (nuclei count vs DMSO), 5 days (fraction); higher = more cells survive; details: first compound 0.01 µM
# print the numeric value only

O=c1cc(N2CCOCC2)oc2c(-c3cccc4c3sc3ccccc34)cccc12 + CC(=O)c1c(C)c2cnc(Nc3ccc(N4CCNCC4)cn3)nc2n(C2CCCC2)c1=O [Palbociclib] (partner 0.5 µM) = 0.274

Let us examine a further case.
Give measured relative viability for CCN(CC)CCCCNc1ncc2cc(-c3cc(OC)cc(OC)c3)c(NC(=O)NC(C)(C)C)nc2n1 + CC1(C)CCC(c2ccc(Cl)cc2)=C(CN2CCN(c3ccc(C(=O)NS(=O)(=O)c4ccc(N[C@H](CCN5CCOCC5)CSc5ccccc5)c(S(=O)(=O)C(F)(F)F)c4)cc3)CC2)C1 [Navitoclax] (partner 0.5 µM) (SK-MES-1).
1.27

---

test system: NCI-H1650; experiment: relative viability (nuclei count vs DMSO), 5 days (fraction); higher = more cells survive; details: first compound 2.53 µM
Measured relative viability by item
# print the numeric value only

COc1nc(C)cnc1NS(=O)(=O)c1cccnc1-c1ccc(-c2nnco2)cc1 [Zibotentan] + CC(=O)c1c(C)c2cnc(Nc3ccc(N4CCNCC4)cn3)nc2n(C2CCCC2)c1=O [Palbociclib] (partner 0.5 µM) = 0.336
O=c1cc(-c2cccc3c2Sc2ccccc2S3)oc(N2CCOCC2)c1 + COc1cccc2cc(-c3nc([C@H]4CC[C@H](C(=O)O)CC4)n4ncnc(N)c34)[nH]c12 [OSI-027] (partner 0.5 µM) = 0.521

Let us examine a further case.
Tell me its relative viability given COc1nc(C)cnc1NS(=O)(=O)c1cccnc1-c1ccc(-c2nnco2)cc1 [Zibotentan] + CS(=O)(=O)N1CCN(Cc2cc3nc(-c4cccc5[nH]ncc45)nc(N4CCOCC4)c3s2)CC1 [Pictilisib] (partner 1 µM) as the entry.
0.658

---

system: NCI-H1993; experiment: relative viability (nuclei count vs DMSO), 5 days (fraction); higher = more cells survive; conditions: first compound 0.1 µM
Measured relative viability by item
# print the numeric value only

CCN(CC)CCCCNc1ncc2cc(-c3cc(OC)cc(OC)c3)c(NC(=O)NC(C)(C)C)nc2n1 + Nc1ncn([C@H]2C[C@H](O)[C@@H](CO)O2)c(=O)n1 [Decitabine] (partner 2 µM) = 0.508
CCN(CC)CCCCNc1ncc2cc(-c3cc(OC)cc(OC)c3)c(NC(=O)NC(C)(C)C)nc2n1 + Nc1nc2[nH]cc(CCc3ccc(C(=O)N[C@@H](CCC(=O)O)C(=O)O)cc3)c2c(=O)[nH]1 [Pemetrexed] (partner 0.2 µM) = 0.652
CCN(CC)CCCCNc1ncc2cc(-c3cc(OC)cc(OC)c3)c(NC(=O)NC(C)(C)C)nc2n1 + CCNC(=O)c1noc(-c2cc(C(C)C)c(O)cc2O)c1-c1ccc(CN2CCOCC2)cc1 [Luminespib] (partner 0.01 µM) = 0.771
O=c1cc(N2CCOCC2)oc2c(-c3cccc4c3sc3ccccc34)cccc12 + N=C(N)NC(=N)NCCc1ccccc1 [Phenformin] (partner 250 µM) = 0.506
CCN(CC)CCCCNc1ncc2cc(-c3cc(OC)cc(OC)c3)c(NC(=O)NC(C)(C)C)nc2n1 + Cc1cc(Nc2cc(N3CCN(C)CC3)nc(Sc3ccc(NC(=O)C4CC4)cc3)n2)n[nH]1 [Tozasertib] (partner 0.1 µM) = 0.604

Tell me its relative viability given CCN(CC)CCCCNc1ncc2cc(-c3cc(OC)cc(OC)c3)c(NC(=O)NC(C)(C)C)nc2n1 + NC(=O)Nc1cc(-c2cccc(F)c2)sc1C(=O)N[C@H]1CCCNC1 [AZD7762] (partner 0.2 µM) as the entry.
0.721

Tell me its relative viability given O=c1cc(N2CCOCC2)oc2c(-c3cccc4c3sc3ccccc34)cccc12 + COc1cccc2cc(-c3nc([C@H]4CC[C@H](C(=O)O)CC4)n4ncnc(N)c34)[nH]c12 [OSI-027] (partner 0.5 µM) as the entry.
0.566

Tell me its relative viability given O=c1cc(N2CCOCC2)oc2c(-c3cccc4c3sc3ccccc34)cccc12 + CC1(C)CCC(c2ccc(Cl)cc2)=C(CN2CCN(c3ccc(C(=O)NS(=O)(=O)c4ccc(N[C@H](CCN5CCOCC5)CSc5ccccc5)c(S(=O)(=O)C(F)(F)F)c4)cc3)CC2)C1 [Navitoclax] (partner 0.5 µM) as the entry.
0.976

Tell me its relative viability given O=c1cc(N2CCOCC2)oc2c(-c3cccc4c3sc3ccccc34)cccc12 + C[C@]1(O)C[C@@H](c2nc(-c3ccc4ccc(-c5ccccc5)nc4c3)c3c(N)nccn32)C1 [Linsitinib] (partner 1 µM) as the entry.
0.687
